molecular target: VHL (Homo sapiens (Human)); assay: VHL fluorescence polarization (FP) competition assay; assay type: binding; conditions: 1% in DMSO
compounds and their reported IC50
measure: IC50 (nM)

{"columns": ["smi", "recorded number"],
 "data": [
  ["COCCCc1ccc2c(c1)CN([C@H](C(=O)N1C[C@H](O)C[C@H]1C(=O)NCc1ccc(-c3scnc3C)cc1)C(C)C)C2=O", 717],
  ["Cc1ncsc1-c1ccc(CNC(=O)[C@@H]2C[C@@H](O)CN2C(=O)[C@@H](NCCC(C)C)C2CCCC2)cc1", 1150],
  ["CC(C)[C@@H](C(=O)N1C[C@H](O)C[C@H]1C(=O)NCc1ccc(C2CCOCC2)cc1)N1Cc2ccccc2C1=O", 330000]
]}
